Counter-ions that a name gives are not always drawn.
ASSAY METRIC: melting point

Solved entries (count: 3):
# MOLECULE, ASSAY METRIC, ASSAY RESULT
data = [
    ("CCCc1nc2c(N)nc3ccccc3c2n1CCCCNS(C)(=O)=O", "melting point", "186.5 to 187.9 °C"),
    ("CCCCc1nc2c(N)nc3ccccc3c2n1CCCNS(=O)(=O)c1ccccc1", "melting point", "210.5 to 212 °C"),
    ("COCCc1nc2c(N)nc3ccccc3c2n1CCCNS(C)(=O)=O", "melting point", "193 to 194 °C"),
]

Hello, I would appreciate it if you could give melting point for each entry below.
1. CS(=O)(=O)NCCCn1c(CCCOc2ccccc2)nc2c(N)nc3ccccc3c21
2. CCCCCc1nc2c(N)nc3c(c2n1CCCCNS(C)(=O)=O)CCCC3
3. CCOCc1nc2c(N)nc3c(c2n1CCCNS(C)(=O)=O)CCCC3

output:
1. 176 to 178 °C
2. 167 to 167.8 °C
3. 212 to 214 °C

Hello, I would appreciate it if you could give melting point for each entry below.
1. CCc1nc2c(N)nc3ccccc3c2n1CCCCNS(=O)(=O)c1ccccc1
2. CCCCc1nc2c(N)nc3ccccc3c2n1CCCCNS(=O)(=O)c1cccc2c(N(C)C)cccc12
3. Cc1nc2c(N)nc3ccccc3c2n1CCCCNS(=O)(=O)c1ccccc1
4. COc1ccc(Cc2nc3c(N)nc4ccccc4c3n2CCCCNS(C)(=O)=O)cc1
5. CCCCc1nc2c(N)nc3ccccc3c2n1CCCCNS(=O)(=O)c1cccc([N+](=O)[O-])c1 (as salt: hydrochloride)
6. CCCCc1nc2c(N)nc3ccccc3c2n1CCCCCCCCNS(=O)(=O)c1ccccc1
7. CCCc1nc2c(N)nc3ccccc3c2n1CCCCNS(=O)(=O)c1ccccc1

output:
1. 180.6 to 182 °C
2. 223 to 224 °C
3. 215.4 to 216 °C
4. 78.1 to 79.5 °C
5. 176 to 178.2 °C
6. 143 to 144 °C
7. 158.8 to 160.8 °C

Hello, I would appreciate it if you could give melting point for each entry below.
1. COCCc1nc2c(N)nc3ccccc3c2n1CCCNS(=O)(=O)c1ccccc1
2. COCCc1nc2c(N)nc3c(c2n1CCCCNS(=O)(=O)c1ccc(F)cc1)CCCC3

output:
1: 149 to 151 °C; 2: 191 to 193 °C
